tested on: S. aureus DSM 20231; assay: Bliss interaction score (quartile over a dose matrix) (fitness difference); higher = more antagonism (negative = synergy); conditions: main component drawn;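 further: first quartile when negative (synergy) and third quartile when positive (antagonism)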

{"molecule": "CC[C@H](C)[C@H](N)C1=N[C@H](C(=O)N[C@@H](CC(C)C)C(=O)N[C@H](CCC(=O)O)C(=O)N[C@H](C(=O)N[C@H]2CCCCNC(=O)[C@H](CC(N)=O)NC(=O)[C@@H](CC(=O)O)NC(=O)[C@H](Cc3cnc[nH]3)NC(=O)[C@@H](Cc3ccccc3)NC(=O)[C@H]([C@@H](C)CC)NC(=O)[C@@H](CCCN)NC2=O)[C@@H](C)CC)CS1 [Bacitracin] + C[C@H]1C[C@@H]2[C@H]([C@@H](O)C[C@@]3(C)[C@H]2CC[C@]3(O)C(=O)CO)[C@@]2(C)C=CC(=O)C=C12 [Methylprednisolone]", "target.under.test": "S. aureus DSM 20231", "Bliss interaction score": -0.282}
{"molecule": "CC[C@H](C)[C@H](N)C1=N[C@H](C(=O)N[C@@H](CC(C)C)C(=O)N[C@H](CCC(=O)O)C(=O)N[C@H](C(=O)N[C@H]2CCCCNC(=O)[C@H](CC(N)=O)NC(=O)[C@@H](CC(=O)O)NC(=O)[C@H](Cc3cnc[nH]3)NC(=O)[C@@H](Cc3ccccc3)NC(=O)[C@H]([C@@H](C)CC)NC(=O)[C@@H](CCCN)NC2=O)[C@@H](C)CC)CS1 [Bacitracin] + CCN(CC)CCOC(=O)c1ccc(N)cc1 [Procaine]", "target.under.test": "S. aureus DSM 20231", "Bliss interaction score": 0.0191}

Origin of the recorded values: the supplement of paper PMC10627819
